Task for the reader: assign each of the following molecules its reported GI50.
system: T-47D breast; assay: NCI tumour cell line growth inhibition, 48 h

In: Requested read-out GI50, target or system T-47D breast, entry O=C(/C(=C/c1ccc([N+](=O)[O-])cc1)SCc1ccc(Cl)cc1)c1ccc(F)cc1
Out: 4.32 µM

In: Requested read-out GI50, target or system T-47D breast, entry Cc1ccc(-c2cc3c4c(nc5ccccc53)C(=O)c3cccnc3-c4n2)cc1
Out: 22.7 µM

In: Requested read-out GI50, target or system T-47D breast, entry Cn1cc(C2=C(c3c4n(c5ccccc35)CCC(CN)C4)C(=O)NC2=O)c2ccccc21 (stereo not given)
Out: 3.17 µM

In: Requested read-out GI50, target or system T-47D breast, entry Cc1cc(O)cc(C)c1/C=C/c1cncc(C(N)=O)c1
Out: 1.8 µM

In: Requested read-out GI50, target or system T-47D breast, entry N=C(N)SCc1c2ccccc2c(CSC(=N)N)c2ccccc12
Out: 3.97 µM
